Tested on: Salmonella enteritidis 1891
procedure.summary: MIC, standard serial dilution method
Assay type: cell-based
study.conditions: Muller-Hinton agar medium, 37° C.
measured.parameter: Minimum growth inhibitory concentrations (MIC.)

{"columns": ["compound", "value.measured"],
 "data": [
  ["CNC(=O)CC1NC(=O)c2csc(n2)-c2ccc(-c3nc(C(=O)NCCCN(C)CCCNCCc4ccc(Cl)cc4)cs3)nc2-c2csc(n2)-c2csc(n2)C(C(C)C)NC(=O)CNC(=O)c2csc(n2)C(C(C)C)NC(=O)c2nc1sc2C (centres unmarked)", "> 100 µg/mL"]
]}

So for CNC(=O)CC1NC(=O)c2csc(n2)-c2ccc(-c3nc(C(=O)NCCCCCC(=O)O)cs3)nc2-c2csc(n2)-c2csc(n2)C(C(C)C)NC(=O)CNC(=O)c2csc(n2)C(C(C)C)NC(=O)c2nc1sc2C (centres unmarked) , the logged Minimum growth inhibitory concentrations (MIC.) turned out to be 6.25 µg/mL

###

Listing: Minimum growth inhibitory concentrations (MIC.) of selected compounds
Tested on: Micrococcus luteus ATCC 9341
procedure.summary: MIC, standard serial dilution method
Format: cell-based
study.conditions: Muller-Hinton agar medium, 37° C.
Just the number please, in µg/mL, no unit attached.

// below: answered compounds
{"columns": ["compound", "value.measured"],
 "data": [
  ["CCCCNC(=O)c1csc(-c2ccc3c(n2)-c2csc(n2)-c2csc(n2)C(C(C)C)NC(=O)CNC(=O)c2csc(n2)C(C(C)C)NC(=O)c2nc(sc2C)C(CC(=O)NC)NC(=O)c2csc-3n2)n1 (stereo not shown)", 1.56],
  ["CNC(=O)CC1NC(=O)c2csc(n2)-c2ccc(-c3nc(C(=O)N[C@H](CO)CCCNC(=N)N)cs3)nc2-c2csc(n2)-c2csc(n2)C(C(C)C)NC(=O)CNC(=O)c2csc(n2)C(C(C)C)NC(=O)c2nc1sc2C (stereo partly shown)", 100]
]}

# next compound below
Field Minimum growth inhibitory concentrations (MIC.) (entry CNC(=O)CC1NC(=O)c2csc(n2)-c2ccc(-c3nc(C(=O)NCCCO)cs3)nc2-c2csc(n2)-c2csc(n2)C(C(C)C)NC(=O)CNC(=O)c2csc(n2)C(C(C)C)NC(=O)c2nc1sc2C (stereo not shown) ) reads 0.20

###

Test system: Staphylococcus epidermidis ATCC 14990
procedure.summary: MIC, standard serial dilution method
Format: cell-based
study.conditions: Muller-Hinton agar medium, 37° C.
measured.parameter: Minimum growth inhibitory concentrations (MIC.)

Examples with their reported Minimum growth inhibitory concentrations (MIC.) follow.
{"columns": ["molecule", "value.measured"],
 "data": [
  ["CNC(=O)CC1NC(=O)c2csc(n2)-c2ccc(-c3nc(C(=O)NCCCO)cs3)nc2-c2csc(n2)-c2csc(n2)C(C(C)C)NC(=O)CNC(=O)c2csc(n2)C(C(C)C)NC(=O)c2nc1sc2C (stereo not shown) [Compound No. 9]", "0.78 µg/mL"],
  ["CCCCNC(=O)c1csc(-c2ccc3c(n2)-c2csc(n2)-c2csc(n2)C(C(C)C)NC(=O)CNC(=O)c2csc(n2)C(C(C)C)NC(=O)c2nc(sc2C)C(CC(=O)NC)NC(=O)c2csc-3n2)n1 (stereo not shown) [Compound No. 8]", "> 100 µg/mL"],
  ["CNC(=O)CC1NC(=O)c2csc(n2)-c2ccc(-c3nc(C(=O)N[C@H](CO)CCCNC(=N)N)cs3)nc2-c2csc(n2)-c2csc(n2)C(C(C)C)NC(=O)CNC(=O)c2csc(n2)C(C(C)C)NC(=O)c2nc1sc2C (stereo partly shown) [Compound No. 11]", "> 100 µg/mL"]
]}

Next, consider the following molecule.
Reported Minimum growth inhibitory concentrations (MIC.) for CNC(=O)CC1NC(=O)c2csc(n2)-c2ccc(-c3nc(C(=O)N[C@@H](CCCNC(=N)N)C(=O)O)cs3)nc2-c2csc(n2)-c2csc(n2)C(C(C)C)NC(=O)CNC(=O)c2csc(n2)C(C(C)C)NC(=O)c2nc1sc2C (stereo partly shown) [Compound No. 10] was > 100 µg/mL

###

Each entry below carries its reported Minimum growth inhibitory concentrations (MIC.).
System: Staphylococcus aureus MS 15026
procedure.summary: MIC, standard serial dilution method
Type: cell-based
study.conditions: Muller-Hinton agar medium, 37° C.

Below are worked cases with known answers.
{"columns": ["molecule", "value.measured"],
 "data": [
  ["CNC(=O)CC1NC(=O)c2csc(n2)-c2ccc(-c3nc(C(=O)NCCCO)cs3)nc2-c2csc(n2)-c2csc(n2)C(C(C)C)NC(=O)CNC(=O)c2csc(n2)C(C(C)C)NC(=O)c2nc1sc2C (stereo not shown) [Compound No. 9]", "0.39 µg/mL"],
  ["CCCCNC(=O)c1csc(-c2ccc3c(n2)-c2csc(n2)-c2csc(n2)C(C(C)C)NC(=O)CNC(=O)c2csc(n2)C(C(C)C)NC(=O)c2nc(sc2C)C(CC(=O)NC)NC(=O)c2csc-3n2)n1 (stereo not shown) [Compound No. 8]", "> 100 µg/mL"],
  ["CNC(=O)CC1NC(=O)c2csc(n2)-c2ccc(-c3nc(C(=O)N[C@@H](CCCNC(=N)N)C(=O)O)cs3)nc2-c2csc(n2)-c2csc(n2)C(C(C)C)NC(=O)CNC(=O)c2csc(n2)C(C(C)C)NC(=O)c2nc1sc2C (stereo partly shown) [Compound No. 10]", "> 100 µg/mL"]
]}

Minimum growth inhibitory concentrations (MIC.) for CNC(=O)CC1NC(=O)c2csc(n2)-c2ccc(-c3nc(C(=O)N[C@H](CO)CCCNC(=N)N)cs3)nc2-c2csc(n2)-c2csc(n2)C(C(C)C)NC(=O)CNC(=O)c2csc(n2)C(C(C)C)NC(=O)c2nc1sc2C (stereo partly shown) [Compound No. 11] is > 100 µg/mL
